- assay_system: HLA-B*44:03
- assay_method_text: IEDB peptide-MHC binding, purified MHC/competitive/radioactivity; filed as Kd, often an IC50 or EC50 that approximates it; bounds were set here for any values at or beyond the usual limits of such assays
- experimental_context: source organism: Mammarenavirus lassaense
quantity_measured: Kd (µM)

INSERT INTO results (sequence_code, reading_qualifier, endpoint_value) VALUES
  ('REVGDTSSDL', '≥', 24.8),
  ('EELITDTEFL', '=', 9.1),
  ('AEFKSRFFVW', '=', 0.0156);

====

- assay_system: HLA-B*53:01
- assay_method_text: IEDB peptide-MHC binding, purified MHC/competitive/radioactivity; filed as Kd, often an IC50 or EC50 that approximates it; bounds were set here for any values at or beyond the usual limits of such assays
- experimental_context: source organism: Mammarenavirus juninense
quantity_measured: Kd (nM)

INSERT INTO measurements (sequence_code, quantity_measured, units_symbol, endpoint_value) VALUES
  ('HPDMDSLMI', 'Kd', 'nM', 79.6);
